testedOn: CYP2C9 (Homo sapiens, UniProt P11712)
Construct: purchased ThermoFisher (Vivid CYP450 screening kit), run at RBC
Sequence (P11712 whole entry): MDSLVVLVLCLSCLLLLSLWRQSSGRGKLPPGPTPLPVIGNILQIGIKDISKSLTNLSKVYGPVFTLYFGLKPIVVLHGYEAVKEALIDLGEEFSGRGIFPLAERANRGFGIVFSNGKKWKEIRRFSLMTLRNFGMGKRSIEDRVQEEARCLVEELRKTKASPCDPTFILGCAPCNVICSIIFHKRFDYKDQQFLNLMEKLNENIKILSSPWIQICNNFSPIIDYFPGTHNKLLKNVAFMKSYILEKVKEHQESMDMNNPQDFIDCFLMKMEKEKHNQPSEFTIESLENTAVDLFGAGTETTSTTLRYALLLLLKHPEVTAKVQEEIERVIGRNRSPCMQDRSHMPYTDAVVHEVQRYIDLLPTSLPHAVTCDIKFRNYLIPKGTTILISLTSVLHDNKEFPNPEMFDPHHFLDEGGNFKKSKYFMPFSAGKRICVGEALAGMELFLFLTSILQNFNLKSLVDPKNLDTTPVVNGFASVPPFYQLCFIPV
protocolSummary: Cytochrome P450 inhibition assay (Vivid CYP450 kit)
Format: in vitro ADME
recordedConditions: recombinant CYP2C9 (Vivid CYP450 screening kit), single-dose duplicate, read-out: CYP inhibition % CYP2C9
endpointName: inhibition at 10 µM
Note to self: number, then unit, no commentary.

Just so you know, measured inhibition at 10 µM for "CCN1CCN(Cc2ccc(NC(=O)c3cccc(C#Cc4cccc5[nH]nc(N)c45)c3)cc2C(F)(F)F)CC1" came out at 50.7%

---

testedOn: CYP2D6 (Homo sapiens)
Construct: purchased ThermoFisher (Vivid CYP450 screening kit), run at RBC
Sequence (P10635 whole entry): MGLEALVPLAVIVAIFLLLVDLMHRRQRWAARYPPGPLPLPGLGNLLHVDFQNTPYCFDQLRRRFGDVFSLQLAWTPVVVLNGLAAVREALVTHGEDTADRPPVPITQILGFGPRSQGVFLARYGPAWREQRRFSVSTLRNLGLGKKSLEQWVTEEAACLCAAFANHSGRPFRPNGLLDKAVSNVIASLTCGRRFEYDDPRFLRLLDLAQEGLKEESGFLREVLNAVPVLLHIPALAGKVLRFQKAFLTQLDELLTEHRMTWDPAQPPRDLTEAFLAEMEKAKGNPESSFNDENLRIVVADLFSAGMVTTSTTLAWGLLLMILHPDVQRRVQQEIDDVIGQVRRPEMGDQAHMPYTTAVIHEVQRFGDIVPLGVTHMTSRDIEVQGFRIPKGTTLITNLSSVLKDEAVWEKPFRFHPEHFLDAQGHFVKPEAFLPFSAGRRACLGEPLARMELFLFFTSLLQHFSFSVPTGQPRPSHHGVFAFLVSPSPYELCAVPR
protocolSummary: Cytochrome P450 inhibition assay (Vivid CYP450 kit)
Type: in vitro ADME
recordedConditions: human, recombinant CYP2D6 (Vivid CYP450 screening kit); 10 µM, single-dose duplicate; read-out: CYP inhibition % CYP2D6
endpointName: inhibition at 10 µM (%)
Answers are plain numbers, in %.

The reported inhibition at 10 µM of the molecule CCN1CCN(Cc2ccc(NC(=O)c3cccc(C#Cc4cccc5[nH]nc(N)c45)c3)cc2C(F)(F)F)CC1 [Compound 5] was 13.9
